Where do these numbers come from? They come from patent US12077503B2.

- Test system: velvetleaf (Abutilon theophrasti)
- procedure_details: Test G Pre-Emergence Protocol
- Type: in vivo
- condition_info: Abutilon theophrasti, pre-emergence, 312 h, 250 g ai/ha, evaluated after 13 days, read-out: Velvetleaf damage rating (100=total damage to plant; 0=no damage to plant)
Overview of reported pest or weed control at 250 g/ha across a group of compounds:

>  <compound>
Cc1c(C#N)cccc1NC(=O)[C@H]1C(=O)N(C)C[C@@H]1c1ccc(C(F)(F)F)cc1 (racemic) [Compound 1444]

>  <target_entity>
velvetleaf (Abutilon theophrasti)

>  <unit_text>
%

>  <pest or weed control at 250 g/ha>
20

$$$$
>  <compound>
CN1C[C@@H](c2ccc(C(F)(F)F)cc2)[C@H](C(=O)Nc2nc[nH]n2)C1=O (racemic) [Compound 1534]

>  <target_entity>
velvetleaf (Abutilon theophrasti)

>  <unit_text>
%

>  <pest or weed control at 250 g/ha>
0

$$$$
>  <compound>
Cc1ccc([C@H]2CN(C)C(=O)[C@@H]2C(=O)Nc2cccc3c2S(=O)(=O)CC3)cc1 (racemic) [Compound 1739]

>  <target_entity>
velvetleaf (Abutilon theophrasti)

>  <unit_text>
%

>  <pest or weed control at 250 g/ha>
0

$$$$
>  <compound>
CN1C[C@H](c2ccc(C(F)(F)F)cc2)[C@@H](C(=O)Nc2cnccc2[N+](=O)[O-])C1=O (racemic) [Compound 1729]

>  <target_entity>
velvetleaf (Abutilon theophrasti)

>  <unit_text>
%

>  <pest or weed control at 250 g/ha>
0

$$$$
>  <compound>
CN1C[C@@H](c2ccc(C(F)(F)F)cc2)[C@H](C(=O)Nc2cccc(Cl)n2)C1=O (racemic) [Compound 1606]

>  <target_entity>
velvetleaf (Abutilon theophrasti)

>  <unit_text>
%

>  <pest or weed control at 250 g/ha>
0

$$$$
>  <compound>
CN1C[C@H](c2ccc(C(F)(F)F)cc2)[C@@H](C(=O)Nc2cc(C#N)ccn2)C1=O (racemic) [Compound 1734]

>  <target_entity>
velvetleaf (Abutilon theophrasti)

>  <unit_text>
%

>  <pest or weed control at 250 g/ha>
0

$$$$
>  <compound>
CN1C[C@@H](c2ccc(CF)cc2)[C@H](C(=O)Nc2cccc(F)c2F)C1=O (racemic) [Compound 1822]

>  <target_entity>
velvetleaf (Abutilon theophrasti)

>  <unit_text>
%

>  <pest or weed control at 250 g/ha>
80

$$$$
>  <compound>
CN1C[C@@H](c2cc(Cl)nc(C(F)(F)F)c2)[C@H](C(=O)Nc2cccc(F)c2F)C1=O (racemic) [Compound 1485]

>  <target_entity>
velvetleaf (Abutilon theophrasti)

>  <unit_text>
%

>  <pest or weed control at 250 g/ha>
30

$$$$
>  <compound>
CN1CC(c2ccc(Cl)c([N+](=O)[O-])c2)C(C(=O)Nc2cccc(F)c2F)C1=O (stereo not drawn) [Compound 1685]

>  <target_entity>
velvetleaf (Abutilon theophrasti)

>  <unit_text>
%

>  <pest or weed control at 250 g/ha>
30

$$$$
>  <compound>
CN1C[C@H](c2cccc(C(F)(F)F)c2)[C@@H](C(=O)Nc2cc(O)ccc2F)C1=O (racemic) [Compound 1807]

>  <target_entity>
velvetleaf (Abutilon theophrasti)

>  <unit_text>
%

>  <pest or weed control at 250 g/ha>
0

$$$$
>  <compound>
C=CCc1c(Cl)cccc1NC(=O)[C@H]1C(=O)N(C)C[C@H]1c1ccc(C(F)(F)F)cc1 (racemic) [Compound 1439]

>  <target_entity>
velvetleaf (Abutilon theophrasti)

>  <unit_text>
%

>  <pest or weed control at 250 g/ha>
0

$$$$
>  <compound>
CN1C[C@@H](c2ccc(C(F)(F)F)cc2)[C@H](C(=O)Nc2ncc(Br)cn2)C1=O (racemic) [Compound 1514]

>  <target_entity>
velvetleaf (Abutilon theophrasti)

>  <unit_text>
%

>  <pest or weed control at 250 g/ha>
0

$$$$
>  <compound>
CN1CC(c2ccc(F)c(OCC(F)(F)F)c2)C(C(=O)Nc2cccc(F)c2F)C1=O (stereo not drawn) [Compound 1718]

>  <target_entity>
velvetleaf (Abutilon theophrasti)

>  <unit_text>
%

>  <pest or weed control at 250 g/ha>
50

$$$$
>  <compound>
Cc1cc(C(F)(F)F)ccc1[C@@H]1CN(C)C(=O)[C@H]1C(=O)Nc1ccccc1F (racemic) [Compound 1415]

>  <target_entity>
velvetleaf (Abutilon theophrasti)

>  <unit_text>
%

>  <pest or weed control at 250 g/ha>
0

$$$$
>  <compound>
C=C(C)c1ccccc1NC(=O)[C@H]1C(=O)N(C)C[C@@H]1c1cccc(C(F)(F)F)c1 (racemic) [Compound 1736]

>  <target_entity>
velvetleaf (Abutilon theophrasti)

>  <unit_text>
%

>  <pest or weed control at 250 g/ha>
10

$$$$

---

- System: corn (Zea mays)
- procedure_details: Test G Pre-Emergence Protocol
- Assay type: in vivo
- condition_info: Zea mays, pre-emergence, 312 h, 250 g ai/ha, evaluated after 13 days, read-out: Corn damage rating (100=total damage to plant; 0=no damage to plant)

>  <compound>
CN1C[C@H](c2ccc3occc3c2)[C@@H](C(=O)Nc2cccc(F)c2F)C1=O (racemic)

>  <target_entity>
corn (Zea mays)

>  <plant injury at 250 g/ha>
30%

$$$$
>  <compound>
CN1C[C@H](c2ccc(F)c(C#N)c2)[C@@H](C(=O)Nc2ccccc2S(C)(=O)=O)C1=O (racemic)

>  <target_entity>
corn (Zea mays)

>  <plant injury at 250 g/ha>
0%

$$$$
>  <compound>
CN1C[C@H](c2ccc(C(F)(F)F)cc2)[C@](C)(C(=O)Nc2cccc(F)c2F)C1=O (racemic)

>  <target_entity>
corn (Zea mays)

>  <plant injury at 250 g/ha>
0%

$$$$
>  <compound>
CN1C[C@H](c2ccc(C(F)(F)F)cc2)[C@@H](C(=O)Nc2ccc(F)c(C(F)(F)F)c2)C1=O (racemic)

>  <target_entity>
corn (Zea mays)

>  <plant injury at 250 g/ha>
0%

$$$$
>  <compound>
CN1C[C@H](c2ccc(C(F)(F)F)cc2)[C@@H](C(=O)Nc2ccccc2C(C)(C)C)C1=O (racemic)

>  <target_entity>
corn (Zea mays)

>  <plant injury at 250 g/ha>
0%

$$$$
>  <compound>
CN1C[C@H](c2ccc(Cl)cc2)[C@@H](C(=O)Nc2cnccc2C(F)(F)F)C1=O

>  <target_entity>
corn (Zea mays)

>  <plant injury at 250 g/ha>
40%

$$$$
>  <compound>
Cc1ccncc1NC(=O)[C@@H]1C(=O)N(C)C[C@H]1c1ccc(C(F)(F)F)cc1 (racemic)

>  <target_entity>
corn (Zea mays)

>  <plant injury at 250 g/ha>
0%

$$$$

---

Overview of reported pest or weed control at 125 g/ha across a group of compounds:
- Tested on: barnyardgrass (Echinochloa crus-galli)
- procedure_details: Test A postemergence
- Type: in vivo
- condition_info: Echinochloa crus-galli, post-emergence, 240 h, 125 g ai/ha, Postemergence, visual rating about 10 d after treatment; read-out: Barnyardgrass plant response rating (0 to 100 scale, 0 no effect, 100 complete control)

>  <compound>
O=C1NCC(c2ccccc2)C1C(=O)Nc1cccnc1 (stereo not drawn) [Compound 1356]

>  <pest or weed control at 125 g/ha, %>
0

$$$$
>  <compound>
O=C(Nc1cccc(F)c1F)C1C(=O)N(CC(F)F)CC1c1cccc(C(F)(F)F)c1 (stereo not drawn) [Compound 1294]

>  <pest or weed control at 125 g/ha, %>
20

$$$$
>  <compound>
CN1C[C@H](c2ccccc2)[C@@H](C(=O)Nc2cccc(F)c2F)C1=O [Compound 1282]

>  <pest or weed control at 125 g/ha, %>
100

$$$$
>  <compound>
CN1C[C@H](c2cc(Cl)cc(Cl)c2)[C@@H](C(=O)Nc2ccccc2F)C1=O [Compound 1269]

>  <pest or weed control at 125 g/ha, %>
90

$$$$
>  <compound>
CN1C[C@H](c2cccc(C(C)(F)F)c2)[C@@H](C(=O)Nc2ccc(F)cc2F)C1=O [Compound 1319]

>  <pest or weed control at 125 g/ha, %>
90

$$$$
>  <compound>
CN1CC[C@H](c2cccc(C(F)(F)F)c2)[C@@H](C(=O)Nc2ccccc2F)C1=O [Compound 1331]

>  <pest or weed control at 125 g/ha, %>
90

$$$$
>  <compound>
O=C1NC[C@H](c2csc3c2CCOC3)[C@H]1C(=O)Nc1cccc(F)c1F [Compound 1279]

>  <pest or weed control at 125 g/ha, %>
50

$$$$
>  <compound>
CN1C[C@H](c2cccc(C(F)(F)F)c2)[C@@H](C(=O)Nc2ccccc2-n2cncn2)C1=O [Compound 1289]

>  <pest or weed control at 125 g/ha, %>
0

$$$$
>  <compound>
Cc1ccncc1NC(=O)[C@H]1C(=O)N(C)C[C@@H]1c1ccc2c(c1)OC(F)(F)O2 [Compound 1351]

>  <pest or weed control at 125 g/ha, %>
0

$$$$
>  <compound>
CO[C@]1(C(=O)Nc2cccc(F)c2F)C(=O)N(C)C[C@@H]1c1ccc(C(F)(F)F)cc1 (racemic) [Compound 1334]

>  <pest or weed control at 125 g/ha, %>
0

$$$$
>  <compound>
Cc1c(F)cccc1NC(=O)[C@H]1C(=O)N(C)C[C@@H]1c1ccc2c(c1)C(F)(F)C(F)(F)O2 [Compound 1272]

>  <pest or weed control at 125 g/ha, %>
70

$$$$
>  <compound>
Cc1cccc([C@H]2CN(C)C(=O)[C@@H]2C(=O)Nc2ccc(F)nc2F)c1 [Compound 1349]

>  <pest or weed control at 125 g/ha, %>
90

$$$$
